- EXPERIMENT: logP determination by HPLC (EEC Directive 79/831 Annex V. A8)
- CONDITION DETAILS: HPLC, gradient method, acetonitrile/0.1% aqueous phosphoric acid
Catalogue of molecules with associated log.P
// print number alone

COCCNc1c(-c2c(F)cc(F)cc2F)c(Cl)nc2nc(Br)nn12    2.99
COC(=O)N(C)Nc1c(-c2ccccc2Cl)c(Cl)nc2nc(Cl)nn12    2.55
CCCNc1c(-c2c(F)cc(F)cc2F)c(Cl)nc2nc(Br)nn12    3.41

Prompt: # log.P lookup, item `CON(C)c1c(-c2c(F)cc(F)cc2F)c(Cl)nc2nc(Br)nn12`
Completion: 3.39

Prompt: Could you do the same for `CC(C)CN(C)c1c(-c2ccc(F)cc2F)c(Cl)nc2nc(Cl)nn12` , please?
Completion: 4.08

Prompt: Could you do the same for CC(C)C(C)Nc1c(-c2ccccc2Cl)c(Cl)nc2nc(Cl)nn12 (stereo not drawn) , please?
Completion: 4.16

Prompt: Could you do the same for `CCN(CCOC)c1c(-c2c(F)cc(F)cc2F)c(Cl)nc2nc(Br)nn12` , please?
Completion: 3.62

Prompt: Could you do the same for `Fc1ccc(-c2c(Cl)nc3nc(Cl)nn3c2NCC(F)(F)F)c(F)c1` , please?
Completion: 3.19

---

- EXPERIMENT: logP determination by HPLC (EEC Directive 79/831 Annex V. A8)
- CONDITION DETAILS: HPLC, gradient method, acetonitrile/0.1% aqueous phosphoric acid
Sorting guide: entries reporting log.P beneath 4 go in the TRUE pile, the rest go in the FALSE pile.

Worked cases, answers included:
C=C(C)CN(CC)c1c(-c2ccc(F)cc2F)c(Cl)nc2nc(Cl)nn12    FALSE
FC(F)C(F)(F)CNNc1c(-c2ccccc2Cl)c(Cl)nc2nc(Cl)nn12    TRUE

Prompt: Check if log.P falls below 4 for Fc1cc(F)c(-c2c(Cl)nc3nc(Cl)nn3c2N2CCCCC2C(F)(F)F)c(F)c1 (stereo not shown) .
Completion: TRUE

Prompt: Could you do the same for `CON(C)c1c(-c2c(F)cc(F)cc2F)c(Cl)nc2nc(Cl)nn12` , please?
Completion: TRUE

Prompt: Could you do the same for `CC(C)Nc1c(-c2c(F)cc(F)cc2F)c(Cl)nc2nc(Br)nn12` , please?
Completion: TRUE

Prompt: Could you do the same for `CN(CC1OCCO1)c1c(-c2ccc(F)cc2F)c(Cl)nc2nc(Cl)nn12` , please?
Completion: TRUE

Prompt: Could you do the same for `CC(C)CN(N)c1c(-c2c(F)cc(F)cc2F)c(Cl)nc2nc(Br)nn12` , please?
Completion: TRUE

Prompt: Could you do the same for CC(Nc1c(-c2c(F)cc(F)cc2F)c(Cl)nc2nc(N(C)C)nn12)C(F)(F)F (stereo not shown) , please?
Completion: TRUE

Prompt: Could you do the same for `CN(C)CCN(C)c1c(-c2ccc(F)cc2F)c(Cl)nc2nc(Cl)nn12` , please?
Completion: TRUE

Prompt: Could you do the same for `CCNc1c(-c2c(F)cc(F)cc2F)c(Cl)nc2nc(Cl)nn12` , please?
Completion: TRUE

Prompt: Could you do the same for `Clc1nc2nc(Cl)c(-c3ccccc3Cl)c(N3CCSCC3)n2n1` , please?
Completion: TRUE

Prompt: Could you do the same for `C=CCN(CC)c1c(-c2c(F)cccc2Cl)c(Cl)nc2nc(Cl)nn12` , please?
Completion: FALSE

Prompt: Could you do the same for `CCN(CCOC)c1c(-c2ccc(F)cc2F)c(Cl)nc2nc(Cl)nn12` , please?
Completion: TRUE

Prompt: Could you do the same for `C=C(C)CN(CC)c1c(-c2c(F)cc(F)cc2F)c(Cl)nc2nc(Cl)nn12` , please?
Completion: FALSE

Prompt: Could you do the same for `Fc1cc(F)c(-c2c(Cl)nc3nc(Cl)nn3c2N2CCSCC2)c(F)c1` , please?
Completion: TRUE

Prompt: Could you do the same for `C=C(C)CN(CC)c1c(-c2c(F)cc(F)cc2F)c(Cl)nc2nc(Br)nn12` , please?
Completion: FALSE

Prompt: Could you do the same for `CN1CCN(c2c(-c3c(F)cc(F)cc3F)c(Cl)nc3nc(Cl)nn23)CC1` , please?
Completion: TRUE

---

- EXPERIMENT: logP determination by HPLC (EEC Directive 79/831 Annex V. A8)
- CONDITION DETAILS: HPLC, gradient method, acetonitrile/0.1% aqueous phosphoric acid
EXPERIMENTAL READOUT: log.P
// print number alone

Some solved entries appear below for comparison.
CCCN(CCOC)c1c(-c2ccc(F)cc2F)c(Cl)nc2nc(Cl)nn12 [Example 128]    3.9
CC(C)C(C)Nc1c(-c2c(F)cccc2Cl)c(Cl)nc2nc(Cl)nn12 (centres unmarked) [Example 172]    4.09
CCCN(CCOC)c1c(-c2c(F)cccc2Cl)c(Cl)nc2nc(Cl)nn12 [Example 135]    4.06
Fc1cc(F)c(-c2c(Cl)nc3nc(Br)nn3c2NC2CCCC2)c(F)c1 [Example 60]    3.94

Prompt: # log.P lookup, item Fc1cc(F)c(-c2c(Cl)nc3nc(Cl)nn3c2NC2CCCC2)c(F)c1 [Example 11]
Completion: 3.9

Hey, just so you know, these numbers are from patent US20050222173A1.
